Below is a list of entries, each paired with its recorded ΔE, DPV peak potential shift after interaction with HSA value.
Target: human serum albumin (HSA) (Homo sapiens, UniProt P02768)
Construct: purchased Sigma-Aldrich
Sequence (P02768 25-609): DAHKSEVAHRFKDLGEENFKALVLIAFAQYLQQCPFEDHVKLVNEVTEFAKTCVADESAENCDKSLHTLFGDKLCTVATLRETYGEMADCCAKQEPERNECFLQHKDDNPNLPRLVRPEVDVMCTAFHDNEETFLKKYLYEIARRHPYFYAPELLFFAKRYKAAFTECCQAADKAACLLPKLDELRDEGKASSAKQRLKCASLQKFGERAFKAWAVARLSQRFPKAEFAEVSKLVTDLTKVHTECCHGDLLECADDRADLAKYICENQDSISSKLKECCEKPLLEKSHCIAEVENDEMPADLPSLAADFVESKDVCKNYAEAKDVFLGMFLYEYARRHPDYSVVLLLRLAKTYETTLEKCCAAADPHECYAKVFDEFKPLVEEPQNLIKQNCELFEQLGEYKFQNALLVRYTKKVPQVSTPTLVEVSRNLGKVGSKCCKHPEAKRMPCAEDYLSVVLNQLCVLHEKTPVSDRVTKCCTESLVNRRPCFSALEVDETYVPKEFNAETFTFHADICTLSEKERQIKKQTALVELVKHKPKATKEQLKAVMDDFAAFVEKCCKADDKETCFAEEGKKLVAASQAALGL
Test: Differential pulse voltammetry (DPV), interaction with HSA
Format: binding
Settings: compound 0.05 mmol/L, PBS pH 7.4, HSA 0.05–10 μmol/L
Reported Property: ΔE, DPV peak potential shift after interaction with HSA (mV)

[[record]]
compound = "COc1ccc2c(c1)c(CNC(=O)NO)c(C)n2C(=O)c1ccc(Cl)cc1"
observed = 34

[[record]]
compound = "CC(=O)N(O)C(C)c1ccc(CC(C)C)cc1 (stereo not drawn)"
observed = 7

[[record]]
compound = "CC(NC(=O)NO)c1ccc(-c2ccccc2)c(F)c1 (stereo not drawn)"
observed = 30

[[record]]
compound = "O=C(NO)NCc1ccccc1Nc1c(Cl)cccc1Cl"
observed = 29

[[record]]
compound = "COc1ccc2cc(C(C)N(O)C(C)=O)ccc2c1 (stereo not drawn)"
observed = 13


* * *

Below is a list of entries, each paired with its recorded Peak Area, t value.
Tested on: CD-1 mouse liver microsomes
Conditions: 30 min, pH 7.4
Reported Property: Peak Area, t

[[record]]
compound = "COc1ccc2c(c1)c(CC(=O)O)c(C)n2C(=O)c1ccc(Cl)cc1 [Indomethacin, indomethacin, reference compound]"
tested_system = "CD-1 mouse liver microsomes"
observed = "206.9 ± 9.0 ×10^3"

[[record]]
compound = "CC(NC(=O)NO)c1ccc(-c2ccccc2)c(F)c1 (stereo not shown)"
tested_system = "CD-1 mouse liver microsomes"
observed = "9.6 ± 3.0 ×10^3"

[[record]]
compound = "CC(=O)N(O)C(C)c1ccc(CC(C)C)cc1 (stereo not shown)"
tested_system = "CD-1 mouse liver microsomes"
observed = "44.6 ± 1.9 ×10^3"

[[record]]
compound = "COc1ccc2c(c1)c(CNC(=O)NO)c(C)n2C(=O)c1ccc(Cl)cc1"
tested_system = "CD-1 mouse liver microsomes"
observed = "60.5 ± 6.4 ×10^3"

[[record]]
compound = "O=C(NO)NCc1ccccc1Nc1c(Cl)cccc1Cl"
tested_system = "CD-1 mouse liver microsomes"
observed = "455.5 ± 8.9 ×10^3"

[[record]]
compound = "COc1ccc2cc(C(C)N(O)C(C)=O)ccc2c1 (stereo not shown)"
tested_system = "CD-1 mouse liver microsomes"
observed = "18.2 ± 0.1 ×10^3"

[[record]]
compound = "O=C(O)Cc1ccccc1Nc1c(Cl)cccc1Cl"
tested_system = "CD-1 mouse liver microsomes"
observed = "99.7 ± 5.3 ×10^3"


* * *

Below is a list of entries, each paired with its recorded Papp at 5 h, 0.05 mM value.
Assay: PAMPA test (hexadecane membrane), passive gastrointestinal absorption
Format: in vitro ADME
Settings: PAMPA, donor pH 5.5, acceptor pH 7.4, 5 h, room temperature, read-out: Pe (effective passive permeability coefficient)
Reported Property: Papp at 5 h, 0.05 mM

[[record]]
compound = "CC(C)Cc1ccc(C(C)C(=O)O)cc1 (stereo not drawn)"
reported_property = "Papp at 5 h, 0.05 mM"
observed = "> 400 ×10⁻⁶ cm/s"

[[record]]
compound = "CC(C(=O)O)c1ccc(-c2ccccc2)c(F)c1 (stereo not drawn)"
reported_property = "Papp at 5 h, 0.05 mM"
observed = "> 400 ×10⁻⁶ cm/s"

[[record]]
compound = "O=C(O)Cc1ccccc1Nc1c(Cl)cccc1Cl"
reported_property = "Papp at 5 h, 0.05 mM"
observed = "> 400 ×10⁻⁶ cm/s"

